# System: CaCl2
# Measurement Protocol: Antifungal sensitivity testing (broth microdilution MIC)
# Format: cell-based
# Reported Conditions: Table 4; 96-well broth microdilution
Field 'label' (enum: yes (1) / no (0)). Set to yes (1) when MIC50 is strictly under 2 µM; else no (0).

Answered examples (6):
>>> class_label("Nc1nc2sc(C(=O)NC3CCN(CCC(O)(Cn4cncn4)c4ccc(F)cc4F)CC3)cc2n(-c2ccc3c(c2)N(c2ccccc2)CCO3)c1=O (centres unmarked)")
"no (0)"
>>> class_label("Nc1nc2sc(C(=O)NC3CCCN(CC(O)(Cn4cncn4)c4ccc(F)cc4F)CC3)cc2n(-c2ccc3c(c2)N(c2ccccc2)CCO3)c1=O (centres unmarked)")
"no (0)"
>>> class_label("CC1CC(NCc2cc3c(nc(N)c(=O)n3-c3ccc4c(c3)N(c3ccccc3)CCO4)s2)CCN1CC(O)(Cn1cncn1)c1ccc(F)cc1F (centres unmarked)")
"no (0)"
>>> class_label("Nc1nc2sc(CNC3[C@@H]4CC[C@H]3CN(CC(O)(Cn3cncn3)c3ccc(F)cc3F)C4)cc2n(-c2ccc3c(c2)N(c2ccccc2)CCO3)c1=O (some centres unmarked)")
"no (0)"
>>> class_label("Nc1nc2sc(CNCC3CCN(CC(O)(Cn4cncn4)c4ccc(F)cc4F)CC3)cc2n(-c2ccc3c(c2)N(c2ccccc2)CCO3)c1=O (centres unmarked)")
"no (0)"
>>> class_label("Nc1nc2sc(C(=O)NC3CCN(CC(O)(Cn4cncn4)c4ccc(F)cc4F)CC3)cc2n(-c2ccc3c(c2)N(c2ccccc2)CCO3)c1=O (centres unmarked)")
"yes (1)"

Query :: # check: MIC50 < 2 µM for Nc1nc2sc(C(=O)Nc3ccc(CN4CCN(CC(O)(Cn5cncn5)c5ccc(F)cc5F)CC4)cc3)cc2n(-c2ccc3c(c2)N(c2ccccc2)CCO3)c1=O (centres unmarked)
Result :: no (0)

Query :: Please indicate whether the reported MIC50 of Nc1nc2sc(CN[C@H]3CCCN(CC(O)(Cn4cncn4)c4ccc(F)cc4F)C3)cc2n(-c2ccc3c(c2)N(c2ccccc2)CCO3)c1=O (some centres unmarked) is strictly below 2 µM.
Result :: no (0)

----------
The following molecules are listed with their measured log10 Kd values.
# Experimental Target: Hsp90 Nuclear Binding Domain (NBD) (Candida albicans (strain SC5314 / ATCC MYA-2876) (Yeast))
# Sequence (P46598 1-218 limits assumed): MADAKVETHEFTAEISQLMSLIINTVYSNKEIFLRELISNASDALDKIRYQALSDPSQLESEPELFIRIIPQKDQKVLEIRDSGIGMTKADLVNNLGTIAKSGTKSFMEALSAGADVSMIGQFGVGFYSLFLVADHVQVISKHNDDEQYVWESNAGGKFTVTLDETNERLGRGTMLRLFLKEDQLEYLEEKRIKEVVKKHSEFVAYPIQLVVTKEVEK
# Measurement Protocol: Surface Plasmon Resonance (SPR) binding, C. albicans Hsp90 NBD
# Reported Conditions: biotinylated Hsp90 NBD on streptavidin chip, 25° C., 1:1 binding model
Form field - Quantity: Kd; Unit: nM; Scale: log10

Worked examples, 4 molecules total:
>>> assay_result("Nc1nc2sc(CNC3CCN(C[C@@](O)(Cn4cncn4)c4ccc(F)cc4F)CC3)cc2n(-c2ccc3c(c2)N(c2ccccc2)CCO3)c1=O [Compound I-62]")
2.37
>>> assay_result("Nc1nc2sc(CN[C@@H]3CCN(CC(O)(Cn4cncn4)c4ccc(F)cc4F)C3)cc2n(-c2ccc3c(c2)N(c2ccccc2)CCO3)c1=O (some centres unmarked) [Compound I-77]")
2.27
>>> assay_result("Nc1nc2sc(CNCC3CCN(CC(O)(Cn4cncn4)c4ccc(F)cc4F)CC3)cc2n(-c2ccc3c(c2)N(c2ccccc2)CCO3)c1=O (centres unmarked) [Compound I-67]")
2.60
>>> assay_result("Nc1nc2sc(-c3nc(C(=O)NCC(O)(Cn4cncn4)c4ccc(F)cc4F)no3)cc2n(-c2ccc3c(c2)N(c2ccccc2)CCO3)c1=O (centres unmarked) [Compound I-57]")
1.51

// next entry
Query :: Which value of log10 Kd has been reported for CC(F)(F)COC(=O)N1Cc2nc(N)nc(-c3c(Cl)cc(Cl)cc3OCCC(O)(Cn3cncn3)c3ccc(F)cc3F)c2C1 (centres unmarked) [Compound I-115] in the records?
Result :: 3.08
